target: Genome polyprotein (dengue virus type 2)
Sequence (P29990 1346-1475 limits assumed): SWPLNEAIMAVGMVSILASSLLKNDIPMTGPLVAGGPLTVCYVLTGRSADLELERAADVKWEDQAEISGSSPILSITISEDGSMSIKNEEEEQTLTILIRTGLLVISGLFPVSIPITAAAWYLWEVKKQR
Sequence (P29990 1476-2093 limits assumed): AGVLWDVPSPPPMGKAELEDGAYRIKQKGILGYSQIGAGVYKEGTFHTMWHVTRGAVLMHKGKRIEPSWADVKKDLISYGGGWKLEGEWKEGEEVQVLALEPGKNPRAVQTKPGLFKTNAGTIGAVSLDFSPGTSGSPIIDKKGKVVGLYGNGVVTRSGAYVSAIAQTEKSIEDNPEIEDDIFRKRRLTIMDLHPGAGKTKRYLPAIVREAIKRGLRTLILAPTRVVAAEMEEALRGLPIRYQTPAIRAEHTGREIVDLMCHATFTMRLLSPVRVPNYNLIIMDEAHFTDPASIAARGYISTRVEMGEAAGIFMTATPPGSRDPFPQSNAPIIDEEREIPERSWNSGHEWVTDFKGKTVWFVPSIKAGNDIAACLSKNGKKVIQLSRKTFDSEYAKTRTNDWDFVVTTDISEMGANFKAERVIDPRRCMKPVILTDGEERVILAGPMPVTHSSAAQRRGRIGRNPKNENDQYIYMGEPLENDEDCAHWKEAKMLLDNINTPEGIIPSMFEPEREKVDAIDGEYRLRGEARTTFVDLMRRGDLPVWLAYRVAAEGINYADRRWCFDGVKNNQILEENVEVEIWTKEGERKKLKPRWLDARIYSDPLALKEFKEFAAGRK
pIC50: −log10 of the molar value.
endpoint.label: pIC50

smiles.notation	study.target	measured.number
N=C(N)NCCC[C@H](NC(=O)c1ccccc1)C(=O)N[C@@H](CCCCN)C(=O)N[C@@H](C(=O)N[C@H](C(N)=O)C1CCCCC1)c1ccc(OCc2ccccc2)cc1	Genome polyprotein (dengue virus type 2)	4.86
N=C(N)Nc1ccc(C[C@H](NC(=O)[C@@H](NC(=O)c2ccccc2)c2ccc(OCc3ccccc3)cc2)C(=O)N[C@@H](C(N)=O)c2ccc(OCc3ccccc3)cc2)cc1	Genome polyprotein (dengue virus type 2)	5.77
NCCCC[C@H](NC(=O)[C@@H](NC(=O)c1ccccc1)c1ccc(OCc2ccccc2)cc1)C(=O)N[C@@H](C(N)=O)c1ccc(OCc2ccccc2)cc1	Genome polyprotein (dengue virus type 2)	5.18
NCCCC[C@H](NC(=O)c1ccccc1)C(=O)N[C@@H](C(=O)N[C@@H](C(N)=O)C1CCCCC1)c1ccc(OCc2ccccc2)cc1	Genome polyprotein (dengue virus type 2)	5.10
N=C(N)NCCC[C@H](NC(=O)c1ccccc1)C(=O)N[C@@H](CCCCN)C(=O)N[C@@H](C(=O)NCc1ccc(C(N)=O)cc1)c1ccc(OCc2ccccc2)cc1	Genome polyprotein (dengue virus type 2)	6.40
NCCCC[C@H](NC(=O)c1ccccc1)C(=O)N[C@H](Cc1ccc(N)cc1)C(=O)NCc1ccc(OCc2ccccc2)cc1	Genome polyprotein (dengue virus type 2)	4.45
N=C(N)NCCC[C@H](NC(=O)c1ccccc1)C(=O)N[C@@H](CCCCN)C(=O)N[C@@H](C(=O)NCc1ccc(CN)cc1)c1ccc(OCc2ccccc2)cc1	Genome polyprotein (dengue virus type 2)	6.52
NCCCC[C@H](NC(=O)c1ccccc1)C(=O)N[C@@H](C(=O)N[C@H](C(N)=O)C1CCCCC1)c1ccc(OCc2ccccc2)cc1	Genome polyprotein (dengue virus type 2)	5.03
NCCCC[C@H](NC(=O)c1ccccc1)C(=O)N[C@H](C(=O)N[C@H](C(N)=O)C1CCCCC1)c1ccc(OCc2ccccc2)cc1	Genome polyprotein (dengue virus type 2)	5.00
